The values you see were collected from the supplement of paper PMC6607015.

Tested on: A431
run.description: filipin (cholesterol) integrated intensity within LBPA endosomes, Z-score; higher = more cholesterol in LBPA endosomes
applied.conditions: compound concentration in added solution (µM; 5 µl added to 20 µl cells): 10; 18 h
Structures can show the parent of a compound that is named as a salt.
Listed next: entries and their corresponding filipin (z-score).
measure: filipin (z-score)

[[record]]
compound = "O=c1[nH]cnc2c1ncn2[C@H]1CC[C@@H](CO)O1"
result = -0.585

[[record]]
compound = "CC(=C(CCO)SSCC1CCCO1)N(C=O)Cc1cnc(C)nc1N (stereo in doubt) [Fursultiamine Hydrochloride]"
result = -0.513

[[record]]
compound = "CN1CCN(c2c(F)cc3c(=O)c(C(=O)O)cn4c3c2SCC4)CC1"
result = -0.534

[[record]]
compound = "COc1ccc(/C=C/C(=O)Nc2ccccc2C(=O)O)cc1OC"
result = -0.443

[[record]]
compound = "O=C(O[C@@H]1C[C@@H]2C[C@H]3C[C@H](C1)N2CC3=O)c1c[nH]c2ccccc12 [Dolasetron mesilate]"
result = -0.498

[[record]]
compound = "CN(C(=O)C(Cl)Cl)c1ccc(OC(=O)c2ccco2)cc1 [Diloxanide furoate]"
result = -0.498

[[record]]
compound = "NS(=O)(=O)c1cc2c(cc1C(F)(F)F)NC(Cc1ccccc1)NS2(=O)=O (stereo unspecified) [Bendroflumethiazide]"
result = -0.529

[[record]]
compound = "CCn1cc(C(=O)O)c(=O)c2cc(F)c(N3CCNC(C)C3)c(F)c21 (stereo unspecified) [Lomefloxacin hydrochloride]"
result = -0.597

[[record]]
compound = "CN1CCC(=C2c3ccccc3C=Cc3ccccc32)CC1 [Cyproheptadine hydrochloride]"
result = 2.25

[[record]]
compound = "Nc1nc(F)nc2c1ncn2[C@@H]1O[C@H](CO)[C@@H](O)[C@@H]1O"
result = -0.372

[[record]]
compound = "C[C@@H]1CN(c2c(F)c(N)c3c(=O)c(C(=O)O)cn(C4CC4)c3c2F)C[C@H](C)N1"
result = -0.322

[[record]]
compound = "C[C@]12C=CC(=O)C=C1CC[C@H]1[C@@H]3C[C@@H](O)[C@](O)(C(=O)CO)[C@@]3(C)C[C@H](O)[C@@]12F"
result = -0.211

[[record]]
compound = "O=C(O)c1cc(/N=N/c2ccc(S(=O)(=O)Nc3ccccn3)cc2)ccc1O"
result = -0.515

[[record]]
compound = "C[C@H]1C[C@@H]2[C@H]([C@@H](O)C[C@@]3(C)[C@H]2CC[C@]3(O)C(=O)CO)[C@@]2(C)C=CC(=O)C=C12"
result = -0.297

[[record]]
compound = "Clc1ccc2nsnc2c1NC1=NCCN1 [Tizanidine HCl]"
result = -0.548

[[record]]
compound = "C=CCOC(Cn1ccnc1)c1ccc(Cl)cc1Cl (stereo unspecified)"
result = -0.128

